Biological target: T1, cynomolgus monkey BCMA (cynomolgus monkey, UniProt A0A2K5UD97 1-53)
T1 construct: Soluble analyte in SPR; construct not described; also called cyBCMA; Cyno BCMA
T1 sequence (A0A2K5UD97 entry or part of it): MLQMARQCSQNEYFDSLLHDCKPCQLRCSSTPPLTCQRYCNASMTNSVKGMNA
Assay: SPR, IgG on chip, cyBCMA analyte
MEASURED ENDPOINT: koff (s⁻¹)
Numbers only, in s⁻¹.

- BINDER: "COMBO_Rd4_6nM_C11 (antibody, V domains shown, IgG) VH: EVQLLESGGGLVQPGGSLRLSCAASGFTFSSYPMSWVRQAPGKGLEWVSAIGGSGGSLGYADSVKGRFTISRDNSKNTLYLQMNSLRAEDTAVYYCARYWPMDSWGQGTLVTVSS VL: EIVLTQSPGTLSLSPGERATLSCRASQSVSPLYLAWYQQKPGQAPRLLMYDASIRATGIPDRFSGSGSGTDFTLTISRLEPEDFAVYYCQQYKAWPLTFGQGTKVEIK"
  UNIT ABBREVIATION: "s⁻¹"
  QUANTITATIVE READOUT: 0.000412
- BINDER: "COMBO_Rd4_0.6nM_C22 (antibody, V domains shown, IgG; also called COM22) VH: EVQLLESGGGLVQPGGSLRLSCAASGFTFSSYAMNWVRQAPGKGLEWVSAISDSGGSRWYADSVKGRFTISRDNSKNTLYLQMNSLRAEDTAVYYCTRYWPMDIWGQGTLVTVSS VL: EIVLTQSPGTLSLSPGERATLSCRASVRVSSTYLAWYQQKPGQAPRLLMYDASIRATGIPDRFSGSGSGTDFTLTISRLEPEDFAVYYCQQYMKWPLTFGQGTKVEIK"
  UNIT ABBREVIATION: "s⁻¹"
  QUANTITATIVE READOUT: "6.66e-05"

// switching to the query binder
Input C01_Rd4_6nM_C10 (antibody, V domains shown, IgG) VH: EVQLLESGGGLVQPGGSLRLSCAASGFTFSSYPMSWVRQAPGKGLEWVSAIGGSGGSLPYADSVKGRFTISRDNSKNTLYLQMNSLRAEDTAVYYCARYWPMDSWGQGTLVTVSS VL: EIVLTQSPGTLSLSPGERATLSCRASQSVSSVYLAWYQQKPGQAPRLLIYDASSRAPGIPDRFSGSGSGTDFTLTISRLEPEDFAVYYCQQYSTWPLTFGQGTKVEIK . Output koff: 0.00219
